Below, each of the molecules is paired with its reported Multi-Tox Assay Max Activity (%) value.
target: APOL1 (Homo sapiens, UniProt O14791); test: Multi-Tox Assay (MultiTox-Fluor Multiplex Cytotoxicity Assay in tet-inducible APOL1 T-REx-HEK293 cells; Table 46 does not say which APOL1 variant G0/G1/G2); assay type: cell-based; conditions: APOL1 variant not given
Sequence (O14791 whole entry S342G/I384M, form open): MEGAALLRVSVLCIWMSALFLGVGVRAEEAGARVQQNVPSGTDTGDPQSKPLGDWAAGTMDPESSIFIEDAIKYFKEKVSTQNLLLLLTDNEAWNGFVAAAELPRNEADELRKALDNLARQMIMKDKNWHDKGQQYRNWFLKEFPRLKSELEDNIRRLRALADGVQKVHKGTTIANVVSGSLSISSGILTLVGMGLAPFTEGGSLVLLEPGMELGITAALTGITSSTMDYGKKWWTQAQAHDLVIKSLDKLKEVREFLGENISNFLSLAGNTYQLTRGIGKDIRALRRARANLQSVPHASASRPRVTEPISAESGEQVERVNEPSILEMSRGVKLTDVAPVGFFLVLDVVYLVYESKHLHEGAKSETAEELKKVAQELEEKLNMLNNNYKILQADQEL
Reported property: Multi-Tox Assay Max Activity (%)

> print(dat)
                                   molecule   value
1  C[C@H]1C[C@@]2(C[C@@H](c3cn(Cc4ccc(OC5CCOCC5)cc4)nn3)N1)OCC(F)(F)c1cc(Cl)sc12   95.0%
2  C[C@H]1C[C@@]2(C[C@@H](c3cn(Cc4ccc(O)nc4)nn3)N1)OC[C@@H](O)c1cc(Cl)sc12   94.0%
3  COCCn1cc([C@@H]2C[C@]3(C[C@H](C)N2)OCC(F)(F)c2cc(Cl)sc23)nn1  100.0%
4  C[C@H]1C[C@@]2(C[C@@H](c3cn(CC4CCOCC4)nn3)N1)OC[C@@H](O)c1cc(Cl)sc12   99.0%
5  Cc1ccnn1CCn1cc([C@@H]2C[C@]3(C[C@H](C)N2)OCC(F)(F)c2cc(Cl)sc23)nn1   98.0%
6  CCC1CC2(CC(c3cn(C)nn3)N1)OCCc1cc(C(F)(F)F)sc12 (stereo not shown)  100.0%
7  CC1CC2(CC(C3CC3(F)F)N1)OCCc1cc(Cl)sc12 (single isomer, unassigned)   99.5%

====

molecular target: APOL1 (Homo sapiens, UniProt O14791); experiment: Multi-Tox Assay (MultiTox-Fluor Multiplex Cytotoxicity Assay in tet-inducible APOL1 T-REx-HEK293 cells; Table 46 does not say which APOL1 variant G0/G1/G2); type: cell-based; settings: APOL1 variant not given
Reported property: Multi-Tox Assay Max Activity (%)

> print(dat)
                                    compound                 reported.property  value
 1  C[C@H]1C[C@@]2(C[C@@H](c3cn(CC4CCS(=O)(=O)C4)nn3)N1)OC[C@@H](O)c1cc(Cl)sc12 (some centres unmarked) [Compound 265]  Multi-Tox Assay Max Activity (%)   99.0
 2  C[C@H]1C[C@@]2(C[C@@H](c3cn(CCC(N)=O)nn3)N1)OC[C@@H](O)c1cc(Cl)sc12 [Compound 288]  Multi-Tox Assay Max Activity (%)   97.0
 3  C[C@H]1C[C@@]2(C[C@@H](c3cn(CCc4ccncn4)nn3)N1)OCC(F)(F)c1cc(Cl)sc12 [Compound 305]  Multi-Tox Assay Max Activity (%)  100.0
 4  CNC(=O)C(C)Cn1cc([C@@H]2C[C@]3(C[C@H](C)N2)OC[C@@H](O)c2cc(Cl)sc23)nn1 (some centres unmarked) [Compound 258]  Multi-Tox Assay Max Activity (%)   98.0
 5  C[C@H]1C[C@@]2(C[C@@H](c3ncc(C(F)(F)F)[nH]3)N1)OCCc1cc(Cl)sc12 (racemic) [Compound 165]  Multi-Tox Assay Max Activity (%)   92.0
 6  C[C@H]1CC2(CC(c3cnn(C)c3)N1)OCC(O)c1cc(Cl)sc12 (single isomer, unassigned) [Compound 175]  Multi-Tox Assay Max Activity (%)  100.0
 7  C[C@H]1C[C@@]2(C[C@@H](c3cc(-c4ccccn4)n[nH]3)N1)OCCc1cc(Cl)sc12 (racemic) [Compound 88]  Multi-Tox Assay Max Activity (%)   99.3
 8  COc1cccc(Cn2cc([C@@H]3C[C@]4(C[C@H](C)N3)OC[C@@H](O)c3cc(Cl)sc34)nn2)c1 [Compound 278]  Multi-Tox Assay Max Activity (%)  100.0
 9  C[C@H]1C[C@@]2(C[C@@H](c3cn(Cc4ccc(O)cc4)nn3)N1)OCC(F)(F)c1cc(Cl)sc12 [Compound 302]  Multi-Tox Assay Max Activity (%)   94.0
10  CC1CC2(CC(c3ccc4c(c3)oc(=O)n4C)N1)OCCc1cc(Cl)sc12 (centres unmarked) [Compound 23]  Multi-Tox Assay Max Activity (%)   99.7
11  C[C@H]1C[C@@]2(C[C@@H](c3cn(CC4CCOCC4)nn3)N1)OCC(F)(F)c1cc(Cl)sc12 [Compound 309]  Multi-Tox Assay Max Activity (%)   97.0
12  C[C@H]1C[C@@]2(C[C@@H](c3cn(CCS(=O)(=O)Nc4ccccc4)nn3)N1)OC[C@@H](O)c1cc(Cl)sc12 [Compound 241]  Multi-Tox Assay Max Activity (%)   97.0
13  C[C@H]1CC2(CC(c3cn(C)cn3)N1)OCC(O)c1cc(Cl)sc12 (stereo in doubt) [Compound 179]  Multi-Tox Assay Max Activity (%)   99.0
14  COCC1(Cn2cc([C@@H]3C[C@]4(C[C@H](C)N3)OCC(F)(F)c3cc(Cl)sc34)nn2)CC1 [Compound 312]  Multi-Tox Assay Max Activity (%)   91.0

====

target: APOL1 (Homo sapiens, UniProt O14791); experiment: Multi-Tox Assay (MultiTox-Fluor Multiplex Cytotoxicity Assay in tet-inducible APOL1 T-REx-HEK293 cells; Table 46 does not say which APOL1 variant G0/G1/G2); type: cell-based; conditions: APOL1 variant not given
Reported property: Multi-Tox Assay Max Activity (%)

> print(dat)
                                    molecule  unit.spec  value
 1  Cc1ccc(Cn2cc([C@@H]3C[C@]4(C[C@H](C)N3)OC[C@@H](O)c3cc(Cl)sc34)nn2)nc1          %  100.0
 2  C[C@H]1C[C@@]2(C[C@@H](c3cn(Cc4cccc(CO)c4)nn3)N1)OC[C@@H](O)c1cc(Cl)sc12          %   97.0
 3  C[C@H]1C[C@@]2(C[C@@H](c3cn(Cc4ccc(S(C)(=O)=O)cc4)nn3)N1)OCC(F)(F)c1cc(Cl)sc12          %   98.0
 4  C[C@H]1C[C@@]2(C[C@@H](c3cn(Cc4ccccc4S(C)(=O)=O)nn3)N1)OCC(F)(F)c1cc(Cl)sc12          %   96.0
 5  Cc1nnc(Cn2cc([C@@H]3C[C@]4(C[C@H](C)N3)OC[C@@H](O)c3cc(Cl)sc34)nn2)[nH]1          %   95.0
 6  C[C@H]1C[C@@]2(C[C@@H](c3cn(CCCO)nn3)N1)OCC(F)(F)c1cc(Cl)sc12          %   98.0
 7  C[C@H]1C[C@@]2(C[C@@H](c3cn(CC(F)F)nn3)N1)OCC(F)(F)c1cc(Cl)sc12          %   96.0
 8  Cc1noc(C)c1Cn1cc([C@@H]2C[C@]3(C[C@H](C)N2)OCC(F)(F)c2cc(Cl)sc23)nn1          %  100.0
 9  CC1CC2(CC(c3cncnc3)N1)OCCc1cc(Cl)sc12 (centres unmarked)          %  100.0
10  CCC(O)Cn1cc([C@@H]2C[C@]3(C[C@H](C)N2)OCC(F)(F)c2cc(Cl)sc23)nn1 (some centres unmarked)          %   98.0
11  CC(C)C(=O)NCCn1cc([C@@H]2C[C@]3(C[C@H](C)N2)OC[C@@H](O)c2cc(Cl)sc23)nn1          %   98.0
12  C[C@H]1C[C@@]2(C[C@@H](c3cn(Cc4n[nH]c5ccccc45)nn3)N1)OCC(F)(F)c1cc(Cl)sc12          %   91.0
13  C[C@H]1C[C@@]2(C[C@@H](c3cn(CC4(CO)CCOCC4)nn3)N1)OC[C@@H](O)c1cc(Cl)sc12          %   95.0
14  Cc1cc([C@@H]2C[C@]3(C[C@H](C)N2)OCCc2cc(Cl)sc23)ccc1O (racemic)          %   99.0
15  C[C@@H](CO)CCn1cc([C@@H]2C[C@]3(C[C@H](C)N2)OC[C@@H](O)c2cc(Cl)sc23)nn1          %   99.0
16  CCOc1cc([C@@H]2C[C@]3(C[C@H](C)N2)OCCc2cc(Cl)sc23)ccc1O (racemic)          %   99.8
17  Cc1ccnn1CCn1cc([C@@H]2C[C@]3(C[C@H](C)N2)OC[C@@H](O)c2cc(Cl)sc23)nn1          %   97.0
18  C[C@H]1C[C@@]2(C[C@@H](c3ccc4c(c3)n(C)c(=O)n4C)N1)OCCc1cc(Cl)sc12 (racemic)          %   99.6
19  CC1CC2(CC(c3cnn(-c4cccnc4)c3)N1)OCCc1cc(Cl)sc12 (centres unmarked)          %  100.0
20  CC(C)C1CC2(CC(c3cn(C)nn3)N1)OCCc1cc(Cl)sc12 (centres unmarked)          %   99.0
21  CC1CC2(CC(c3cnn(CCS(C)(=O)=O)c3)N1)OCCc1cc(Cl)sc12 (centres unmarked)          %   99.0
22  Cc1c(Cn2cc([C@@H]3C[C@]4(C[C@H](C)N3)OC[C@@H](O)c3cc(Cl)sc34)nn2)cnn1C          %   98.0
23  Cc1cc([C@@H]2C[C@]3(C[C@H](C)N2)OCCc2cc(Cl)sc23)nn1C (racemic)          %   99.0
24  C[C@H]1C[C@@]2(C[C@@H](c3cn(Cc4cocn4)nn3)N1)OC[C@@H](O)c1cc(Cl)sc12          %  100.0
25  C[C@H]1C[C@@]2(C[C@@H](c3cn(Cc4cccc(O)c4)nn3)N1)OC[C@@H](O)c1cc(Cl)sc12          %   97.0
26  C[C@H]1C[C@@]2(C[C@@H](c3ccc(O)cn3)N1)OCCc1cc(Cl)sc12 (racemic)          %   99.3
27  C[C@H]1C[C@@]2(C[C@@H](c3ccn(C)n3)N1)OCCc1cc(Cl)sc12 (racemic)          %   99.3
28  Cc1ccccc1C(O)Cn1cc([C@@H]2C[C@]3(C[C@H](C)N2)OCC(F)(F)c2cc(Cl)sc23)nn1 (some centres unmarked)          %   99.0
29  C[C@H]1C[C@@]2(C[C@@H](c3cn(C[C@H](O)CO)nn3)N1)OC[C@@H](O)c1cc(Cl)sc12          %  100.0
